Experiment: in vitro
Details: dog, MDCK, Papp Mean
observable: Papp B→A at 90 min, 5 µM (nm/s)
Write the number in nm/s without appending the unit.

Exercise: Consider the molecule Cc1cc2c(C(N)=O)c(N)n(-c3c(C)c(O)cc(F)c3C)c2nc1C (single isomer, unassigned) . State its measured Papp B→A at 90 min, 5 µM.
Solution: 422

----------
Assay: in vitro
Details: dog, MDCK, Papp Sample - 01
observable: Papp B→A at 90 min, 5 µM

Exercise: Consider the compound Cc1cc2c(C(N)=O)c(N)n(-c3c(C)c(O)cc(F)c3C)c2nc1C (single isomer, unassigned) . State its measured Papp B→A at 90 min, 5 µM.
Solution: 40 ×10⁻⁶ cm/s

----------
Test: In vitro solubility experiment
Format: physicochemical
Conditions: methanol, organic solvent or mixture, thermodynamic from solid
observable: solubility at 0.5 h (mg/mL)
Write the number in mg/mL without appending the unit.

Exercise: Consider the compound Cc1cc2c(C(N)=O)c(N)n(-c3c(C)c(O)cc(F)c3C)c2nc1C (single isomer, unassigned) . State its measured solubility at 0.5 h.
Solution: 40.6

----------
Assay: In vivo pharmacokinetic experiment
Design: species or system CD-1 female mice
Conditions: female, CD-1, mouse, plasma; mice, oral administration 10 mg/kg
Procedure: CD-1 female mice aged 7 to 10 weeks were intravenously administered and orally administered at a dose of 2 mg/kg and 10 mg/kg, respectively. […] The animals were weighed before administration, and the administration volume was calculated according to the body weight. […] The plasma concentrations were processed using a non-compartmental model of Phoenix WinNonlin™ version 8.3 (Certara) pharmacokinetic software, and the pharmacokinetic parameters were calculated using a linear-log trapezoidal method.
observable: AUC(0-t) (ng·h/mL)
Write the number in ng·h/mL without appending the unit.

Exercise: Consider the molecule Cc1cc2c(C(N)=O)c(N)n(-c3c(C)c(O)cc(F)c3C)c2nc1C (single isomer, unassigned) . State its measured AUC(0-t).
Solution: 638

----------
Assay: In vitro solubility experiment
Type: physicochemical
Settings: thermodynamic from solid; FaSSIF, initial pH 6.52, 37° C.
Documented solubility at 0.5 h across a set of molecules
Include the unit right after the number.

>>> value_measured("Cc1cc2c(C(N)=O)c(N)n(-c3c(C)ccc(O)c3C)c2nc1C [RP-6306, reference compound]")
"49 µg/mL"

Let us examine a further case.
Exercise: Consider the molecule Cc1cc2c(C(N)=O)c(N)n(-c3c(C)c(O)cc(F)c3C)c2nc1C (single isomer, unassigned) . State its measured solubility at 0.5 h.
Solution: 61 µg/mL

----------
System: P-glycoprotein (P-gp, MDR1)
Assay: in vitro
Settings: dog, MDCK-MDR1
observable: efflux ratio at 90 min, 5 μM
Keep it simple and answer with nothing but the number.

Exercise: Consider the compound Cc1cc2c(C(N)=O)c(N)n(-c3c(C)c(O)cc(F)c3C)c2nc1C (single isomer, unassigned) . State its measured efflux ratio at 90 min, 5 μM.
Solution: 1.71

----------
Biological target: Recombinant MYT1 protein (Homo sapiens)
Sequence (Q99640 whole entry): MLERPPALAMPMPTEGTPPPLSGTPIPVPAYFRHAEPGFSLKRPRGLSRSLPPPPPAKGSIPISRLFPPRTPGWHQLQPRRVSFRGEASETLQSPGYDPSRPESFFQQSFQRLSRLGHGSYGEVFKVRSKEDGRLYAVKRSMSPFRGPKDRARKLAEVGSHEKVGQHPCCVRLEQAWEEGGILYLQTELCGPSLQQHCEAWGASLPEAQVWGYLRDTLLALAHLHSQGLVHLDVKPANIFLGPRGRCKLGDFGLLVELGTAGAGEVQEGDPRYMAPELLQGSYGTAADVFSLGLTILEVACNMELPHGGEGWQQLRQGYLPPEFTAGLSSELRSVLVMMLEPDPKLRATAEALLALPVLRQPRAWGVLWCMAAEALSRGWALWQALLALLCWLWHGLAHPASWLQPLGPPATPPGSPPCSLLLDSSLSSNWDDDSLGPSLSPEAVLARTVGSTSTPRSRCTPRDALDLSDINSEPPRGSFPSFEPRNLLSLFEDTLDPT
Experiment: In vitro assay for inhibiting MYT1 kinase activity (ADP-GLO)
Settings: 10 μM ATP, read-out: Inhibitory activity against recombinant protein MYT1 IC50
pIC50: −log10 of the molar value.
observable: pIC50

>>> value_measured("Cc1cc2c(C(N)=O)c(N)n(-c3c(C)c(O)cc4ccccc34)c2nc1C")
"6.30 to 6.70"

Exercise: Consider the molecule Cc1cc2c(C(N)=O)c(N)n(-c3c(C)c(O)cc4c3CCCC4)c2nc1C . State its measured pIC50.
Solution: 6.30 to 6.70

----------
Assay: In vivo pharmacokinetic experiment
Design: species or system CD-1 female mice
Conditions: female, CD-1, mouse, plasma, iv; mice, injection 2 mg/kg; read-out: Vdss
observable: Vd
Include the unit right after the number.

Exercise: Consider the compound Cc1cc2c(C(N)=O)c(N)n(-c3c(C)c(O)cc(F)c3C)c2nc1C (single isomer, unassigned) . State its measured Vd.
Solution: 6.76 L/kg

----------
Assay: In vitro solubility experiment
Format: physicochemical
Conditions: thermodynamic from solid; FeSSIF, initial pH 4.98, 37° C.
observable: solubility at 0.5 h (µg/mL)
Write the number in µg/mL without appending the unit.

>>> value_measured("Cc1cc2c(C(N)=O)c(N)n(-c3c(C)ccc(O)c3C)c2nc1C [RP-6306, reference compound]")
182

Let us examine a further case.
Exercise: Consider the molecule Cc1cc2c(C(N)=O)c(N)n(-c3c(C)c(O)cc(F)c3C)c2nc1C (single isomer, unassigned) . State its measured solubility at 0.5 h.
Solution: 327

----------
Tested on: P-glycoprotein (P-gp, MDR1)
Test: in vitro
Settings: dog, MDCK-MDR1, Papp Sample - 02
observable: Papp A→B at 90 min, 5 µM

Exercise: Consider the compound Cc1cc2c(C(N)=O)c(N)n(-c3c(C)c(O)cc(F)c3C)c2nc1C (single isomer, unassigned) . State its measured Papp A→B at 90 min, 5 µM.
Solution: 19.9 ×10⁻⁶ cm/s

----------
System: P-glycoprotein (P-gp, MDR1)
Test: in vitro
Settings: dog, MDCK-MDR1, Papp Sample - 01
observable: Papp B→A at 90 min, 5 µM (×10⁻⁶ cm/s)
Write the number in ×10⁻⁶ cm/s without appending the unit.

Exercise: Consider the compound Cc1cc2c(C(N)=O)c(N)n(-c3c(C)c(O)cc(F)c3C)c2nc1C (single isomer, unassigned) . State its measured Papp B→A at 90 min, 5 µM.
Solution: 35.3

----------
Assay: In vitro solubility experiment
Type: physicochemical
Conditions: simulated gastric fluid, thermodynamic from solid; SGF, initial pH 1.2, 37° C.
observable: solubility at 0.5 h (µg/mL)
Write the number in µg/mL without appending the unit.

>>> value_measured("Cc1cc2c(C(N)=O)c(N)n(-c3c(C)c(O)cc(F)c3C)c2nc1C (single isomer, unassigned)")
4860

Let us examine a further case.
Exercise: Consider the molecule Cc1cc2c(C(N)=O)c(N)n(-c3c(C)ccc(O)c3C)c2nc1C [RP-6306, reference compound] . State its measured solubility at 0.5 h.
Solution: 3860

----------
Test system: P-glycoprotein (P-gp, MDR1)
Test: in vitro
Conditions: dog, MDCK-MDR1, Papp Mean
observable: Papp B→A at 90 min, 5 µM

Exercise: Consider the compound Cc1cc2c(C(N)=O)c(N)n(-c3c(C)c(O)cc(F)c3C)c2nc1C (single isomer, unassigned) . State its measured Papp B→A at 90 min, 5 µM.
Solution: 35 ×10⁻⁶ cm/s

----------
Assay: In vivo pharmacokinetic experiment
Design: species or system CD-1 female mice
Conditions: female, CD-1, mouse, plasma, iv; mice, injection 2 mg/kg
observable: half-life (h)
Write the number in h without appending the unit.

Exercise: Consider the molecule Cc1cc2c(C(N)=O)c(N)n(-c3c(C)c(O)cc(F)c3C)c2nc1C (single isomer, unassigned) [Compound 2] . State its measured half-life.
Solution: 3.32

----------
Tested on: MIA PaCa-2 cells
Experiment: In vitro anti-proliferative activity against MIA PaCa-2 cells (compound alone)
Assay type: cell-based
Details: Homo sapiens, MIA PaCa-2, 72 h, intracellular ATP content
Documented pIC50 across a set of compounds
Keep in mind that pIC50 stands for -log10 of concentration in molar terms.

>>> value_measured("Cc1cc2c(C(N)=O)c(N)n(-c3c(C)c(O)cc(F)c3C)c2nc1C (single isomer, unassigned) [Compound 2]")
5.36

Let us examine a further case.
Exercise: Consider the compound Cc1cc2c(C(N)=O)c(N)n(-c3c(C)ccc(O)c3C)c2nc1C [RP-6306, reference compound] . State its measured pIC50.
Solution: 5.04

----------
Assay: in vitro
Settings: dog, MDCK
observable: efflux ratio at 90 min, 5 μM
Keep it simple and answer with nothing but the number.

Exercise: Consider the compound Cc1cc2c(C(N)=O)c(N)n(-c3c(C)c(O)cc(F)c3C)c2nc1C (single isomer, unassigned) [Compound 2] . State its measured efflux ratio at 90 min, 5 μM.
Solution: 1.56

----------
Tested on: P-glycoprotein (P-gp, MDR1)
Assay: in vitro
Details: dog, MDCK-MDR1, Papp Sample - 01
observable: Papp A→B at 90 min, 5 µM (×10⁻⁶ cm/s)
Write the number in ×10⁻⁶ cm/s without appending the unit.

Exercise: Consider the compound Cc1cc2c(C(N)=O)c(N)n(-c3c(C)c(O)cc(F)c3C)c2nc1C (single isomer, unassigned) . State its measured Papp A→B at 90 min, 5 µM.
Solution: 21.1

----------
Test system: P-glycoprotein (P-gp, MDR1)
Assay: in vitro
Conditions: dog, MDCK-MDR1, Papp Sample - 02
observable: Papp B→A at 90 min, 5 µM
Include the unit right after the number.

Exercise: Consider the compound Cc1cc2c(C(N)=O)c(N)n(-c3c(C)c(O)cc(F)c3C)c2nc1C (single isomer, unassigned) . State its measured Papp B→A at 90 min, 5 µM.
Solution: 34.8 ×10⁻⁶ cm/s

Measured values drawn from patent US12122774B2 for this set.
